test system: HCC-2998 colon; test: NCI tumour cell line growth inhibition, 48 h
Measurement Type: TGI

* CCc1c[nH]c2ncnc(N3CC[C@@](N)(CNC(=O)c4ccc(F)cc4F)C3)c12 | > 100 µM
* COC(=O)C(Cc1nc2ccc(Cl)cc2[nH]c1=O)C(=O)C(=O)Nc1ccccc1[N+](=O)[O-] (stereo not given) | > 100 µM
* C[C@H](CS(C)(=O)=O)Nc1ncc2cc(Oc3ccc(F)cc3F)c(=O)n(C)c2n1 | > 25 µM

Give TGI for each listed item.
1. O=C(Nc1ccc2c(c1)oc(=O)c1ccccc12)C(Cl)Cl
2. C/C=C(/CCCCNCCCC)[Si](C)(C)C

Reply |
> 100 µM
18.2 µM

====

tested on: COLO 205 colon; assay: NCI tumour cell line growth inhibition, 48 h; in the data active = GI50 below about 0.43 µM; inactive = the rest
Thanks in advance; please answer with one of these: 1.0 = active, 0.0 = inactive

A selection of reference data follows.
* COc1ccc2c(c1)C(=O)c1c-2n(CCCN2CCOCC2)c(=O)c2ccccc12 | 0.0
* CCc1c[nH]c2ncnc(N3CC[C@@](N)(CNC(=O)c4ccc(F)cc4F)C3)c12 | 0.0
* CCOC(=O)c1cnn(-c2ccnc3c(C(F)(F)F)cccc23)c1N | 0.0
* Cc1cc(N2CCCC2)nc(N(CCCNc2ccnc3cc(Cl)ccc23)Cc2ccc3c(c2)OCO3)n1 | 0.0
* CCOC(=O)c1c(C)n(Cc2ccc(Cl)cc2Cl)c2c1cc1oc(=O)c(=O)n3c(Cc4ccccc4)nc2c13 | 0.0

Ask | For COc1ccc(-c2ccc(/C=N/n3c(COc4ccc(Cl)cc4)n[nH]c3=S)o2)c([N+](=O)[O-])c1 , which call appears in the assay record?
Reply | 0.0

Ask | In this assay, the call recorded for CC1=CC(=O)C(C(C)=Nc2ccccc2Cl)C(=O)O1 (centres undefined) was what?
Reply | 0.0

Ask | Field: outcome | Entry: Fc1ccc(Nc2nccc(-c3c(-c4ccc(C(F)(F)F)cc4)nn4ncccc34)n2)cc1F
Reply | 0.0

Ask | Which result was noted for this compound in the test: CCc1c2c(nc3cccc(N)c13)-c1cc3c(c(=O)n1C2)COC(=O)[C@]3(O)CC
Reply | 1.0

====

Exercise: state measured TGI for each of the compounds provided.
system: SF-268 CNS; assay: NCI tumour cell line growth inhibition, 48 h

Known results for compounds:
• O=C(Nc1cc(Cl)c(Cl)cc1Cl)C(=O)C(C(=O)c1ccc(Cl)c(Cl)c1)C1OC(=O)c2ccccc21 (centres undefined) = 41.8 µM
• COC(=O)[C@@H]1CCCN1C(=O)[C@@H]1CCCN1C(=O)[C@@H](Cc1c[nH]c2ccccc12)NC(=S)Nc1cc(C(F)(F)F)cc(C(F)(F)F)c1 = > 100 µM
• CN(C)CCNC(=O)c1ccc(Cl)c2c(Nc3ccc(S(N)(=O)=O)cc3)c3ccccc3nc12 = 13.8 µM

Batch: TGI for all items listed.
1. C[C@H](CSC(=O)c1ccccc1)C(=O)N1c2ccccc2C[C@H]1C(=O)O
2. CN(C)c1ccc(C(N)=O)cn1

Reply |
1: > 100 µM; 2: > 100 µM

List the reported TGI of each compound below.
1. CCOC(=O)/C(C#N)=C1\N[C@H](C(=O)OCC)CO1
2. CSc1c(C(=O)Nc2ccc(Cl)cc2)c(N)[nH]c(=O)c1C#N
3. CC(CCCOC(c1ccccc1)(c1ccccc1)c1ccccc1)OC(=O)Nc1cc([N+](=O)[O-])cc([N+](=O)[O-])c1 (centres undefined)
4. COc1ccc(/C=C2\CCCC3=C2NC(C)=NC3c2ccc(OC)c(OC)c2)cc1OC (centres undefined)

Reply |
1. > 100 µM
2. > 100 µM
3. > 100 µM
4. > 100 µM

====

Task for the reader: assign each of the following compounds its reported TGI.
system: MALME-3M melanoma; experiment: NCI tumour cell line growth inhibition, 48 h

Examples with their reported TGI follow.
- CCOC(=O)C(NC(=O)NC(C(=O)OCC)C(=O)OCC)C(=O)OCC: > 100 µM
- CCOC(=O)c1cnn(-c2ccnc3c(C(F)(F)F)cccc23)c1N: > 100 µM
- CC(=O)O[C@]12CCC[C@H]1C1(O)C(O)CCC[C@H]12 (stereo partly specified): > 100 µM
- C/C=C(/CCCCNCCCC)[Si](C)(C)C: 33.2 µM
- CS(=O)(=O)Nc1cc(-c2ccc3ncnc(Nc4ccc5c(cnn5Cc5ccc(F)cc5)c4)c3c2)cnc1Cl: 2.92 µM
- COc1ccc2c(C(=O)O)cc3cc(OC)c(OC)cc3c2c1: > 100 µM
- CN(C)c1ccc(C(N)=O)cn1: > 100 µM
- Cc1nnc2sc(-c3ccc(-c4ccccc4Cl)o3)nn12: > 100 µM
- Cc1c2cnccc2nc2[nH]c3ccncc3c12: 14.1 µM
- COc1cnc2c(c1)C(=O)c1c-2n(CCCN2CCCC2)c(=O)c2cc(Cl)ccc12: 15.3 µM

Give me TGI for each of these compounds, listed below.
1. C[C@H](CS(C)(=O)=O)Nc1ncc2cc(Oc3ccc(F)cc3F)c(=O)n(C)c2n1
2. OC(c1ccccc1)(c1ccccc1)c1cccnc1

Reply |
> 25 µM
> 100 µM

====

system: OVCAR-5 ovarian; test: NCI tumour cell line growth inhibition, 48 h
I'd appreciate it if you could supply TGI values for the items below.
Numbers only, in µM.

Known results for compounds:
- Clc1ccc(CN2COc3c(cc(Cl)c4cccnc34)C2)cc1: 8.11
- CN(C)CCNC(=O)c1ccc(Cl)c2c(Nc3ccc(S(N)(=O)=O)cc3)c3ccccc3nc12: 8.48
- Cn1c(=O)nc2n(-c3ccc(Cl)cc3Cl)c3ccccc3nc-2c1=O: 49
- O=C(Nc1cc(Cl)c(Cl)cc1Cl)C(=O)C(C(=O)c1ccc(Cl)c(Cl)c1)C1OC(=O)c2ccccc21 (stereo not given): 23.6
- COc1cnc2c(c1)C(=O)c1c-2n(CCCN2CCCC2)c(=O)c2cc(Cl)ccc12: 11.3

API: the following record is the query input.
Ask | Give its TGI value. Item: Nc1nc(Nc2cccc(F)c2)nc2ccccc12
Reply | 43.5

====

system: MCF7 breast; assay: NCI tumour cell line growth inhibition, 48 h; in the data active = GI50 below about 0.43 µM; inactive = the rest
Write down one outcome, taken from true = active, false = inactive

• COc1ccc2c(c1)C(=O)c1c-2n(CCCN2CCOCC2)c(=O)c2ccccc12 = true
• C=C[C@]1(C)C=C2C(=O)[C@@]3(O)OC[C@@]4(CCCC(C)(C)C43O)C2(O)C(O)C1 (stereo not given in full) = false
• Fc1ccc(Nc2nc(NCCNc3ccnc4cc(Cl)ccc34)nc(N3CCOCC3)n2)cc1 = false
• Cn1cc(-c2ccc3c(c2)CCN3C(=O)Cc2cccc(C(F)(F)F)c2)c2c(N)ncnc21 = false
• Oc1cc(Cl)ccc1Oc1ccc(Cl)cc1Cl = false

Ask | Check the results log: what was the call for Nc1nc(Nc2cccc(F)c2)nc2ccccc12 ?
Reply | false

Ask | Write down the call the test reported for this compound. Item: Cn1cc(-c2ccc(CNc3cc(-c4cnc5cc(OCCCN6CCCC6)ccn45)ncn3)cc2)cn1
Reply | false

Ask | For this compound, state the assay outcome: CCN1C(=O)N(CC)C2C1NN=c1s/c(=C3\C(=O)N(C)c4ccccc43)c(=O)n12 (stereo not given)
Reply | true

Ask | In this assay, the call recorded for COc1ccccc1-c1c(C)nn2c(NCc3ccccn3)cc(C)nc12 was what?
Reply | false

Ask | Field: outcome | Entry: C[C@H](CS(C)(=O)=O)Nc1ncc2cc(Oc3ccc(F)cc3F)c(=O)n(C)c2n1
Reply | false

====

Could you please report measured TGI for the items listed next?
system: EKVX NSCLC; assay: NCI tumour cell line growth inhibition, 48 h

* CC1=NN(C(=O)c2ccc(Cl)cc2)C(=O)/C1=C/c1cccc([N+](=O)[O-])c1 | > 100 µM
* CN(/N=C/c1cccs1)c1ccc([N+](=O)[O-])cc1[N+](=O)[O-] | > 100 µM
* C=C(C)CCC(C)N1CCC(N2CCC(C(=O)NCCc3ccccc3)CC2)CC1 (stereo unspecified) | > 100 µM

List reported TGI for each of these compounds:
1. CCOC(=O)N1CCN(S(=O)(=O)c2oc(-c3ccc(Cl)cc3)nc2C#N)CC1
2. Cc1ncc([N+](=O)[O-])n1CCNC(=O)CCCn1cnc([N+](=O)[O-])n1

Reply |
1. 27.2 µM
2. > 31.6 µM

====

tested on: SNB-75 CNS; experiment: NCI tumour cell line growth inhibition, 48 h
Measurement Type: TGI

Example results:
* COC1OC(COC(=O)NCCCCC(=O)C(F)(F)F)C(O)C(O)C1O (stereo unspecified) | > 100 µM
* C=CC12CN(C)C3C4COC(CC41)C1(C(=O)Nc4ccccc41)C32 (stereo unspecified) | > 200 µM
* Nc1nnc(-c2ccco2)c(-c2ccco2)n1 | > 100 µM
* Cc1ccc2c(c1)ncn2-c1ncnc2c1CC(C)c1ccccc1N2C (stereo unspecified) | 18.1 µM
* COC(=O)[C@@H]1CCCN1C(=O)[C@@H]1CCCN1C(=O)[C@@H](Cc1c[nH]c2ccccc12)NC(=S)Nc1cc(C(F)(F)F)cc(C(F)(F)F)c1 | > 100 µM

Shifting focus to the compound that follows.
Ask | Query: TGI; subject: COc1ccc2c(c1)nc(N)c1c3cccnc3cn21
Reply | > 100 µM
